These measurements were taken from patent US20120021967A1.

study.target: AKT1 (Homo sapiens, UniProt P31749)
Sequence (P31749 whole entry): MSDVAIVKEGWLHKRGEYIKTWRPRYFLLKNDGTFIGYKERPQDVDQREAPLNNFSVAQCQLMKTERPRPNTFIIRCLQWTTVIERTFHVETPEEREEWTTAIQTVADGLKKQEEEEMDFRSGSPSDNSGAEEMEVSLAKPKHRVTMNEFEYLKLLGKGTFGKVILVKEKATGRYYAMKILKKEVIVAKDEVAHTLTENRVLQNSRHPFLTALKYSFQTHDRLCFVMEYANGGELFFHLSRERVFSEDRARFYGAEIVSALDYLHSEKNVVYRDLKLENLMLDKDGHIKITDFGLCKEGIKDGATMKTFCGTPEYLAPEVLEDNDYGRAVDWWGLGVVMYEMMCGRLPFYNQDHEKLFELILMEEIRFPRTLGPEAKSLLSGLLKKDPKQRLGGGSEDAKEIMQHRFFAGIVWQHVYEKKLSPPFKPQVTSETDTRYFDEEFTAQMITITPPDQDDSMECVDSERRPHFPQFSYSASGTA
run.description: SPR of SYN23-26 binding to AKT1
condition: read-out: estimated Kd with respect to AKT1
Bridges are numbered along the chain shown (N, C = ends). Roman numbers before positions name the chains, in order. Where no end group is shown, it is not given here.
parameter: Kd

Record I: AHKVVPQRQIRHAYNRYGSGKC / II: FRGWAHIFFGPHVIYRGGSG (amide I:21-II:C) [SYN23-26] / AKT1 (Homo sapiens, UniProt P31749), Kd recorded as ~1 nM

====

study.target: transferrin (Homo sapiens)
Sequence (P02787 20-698): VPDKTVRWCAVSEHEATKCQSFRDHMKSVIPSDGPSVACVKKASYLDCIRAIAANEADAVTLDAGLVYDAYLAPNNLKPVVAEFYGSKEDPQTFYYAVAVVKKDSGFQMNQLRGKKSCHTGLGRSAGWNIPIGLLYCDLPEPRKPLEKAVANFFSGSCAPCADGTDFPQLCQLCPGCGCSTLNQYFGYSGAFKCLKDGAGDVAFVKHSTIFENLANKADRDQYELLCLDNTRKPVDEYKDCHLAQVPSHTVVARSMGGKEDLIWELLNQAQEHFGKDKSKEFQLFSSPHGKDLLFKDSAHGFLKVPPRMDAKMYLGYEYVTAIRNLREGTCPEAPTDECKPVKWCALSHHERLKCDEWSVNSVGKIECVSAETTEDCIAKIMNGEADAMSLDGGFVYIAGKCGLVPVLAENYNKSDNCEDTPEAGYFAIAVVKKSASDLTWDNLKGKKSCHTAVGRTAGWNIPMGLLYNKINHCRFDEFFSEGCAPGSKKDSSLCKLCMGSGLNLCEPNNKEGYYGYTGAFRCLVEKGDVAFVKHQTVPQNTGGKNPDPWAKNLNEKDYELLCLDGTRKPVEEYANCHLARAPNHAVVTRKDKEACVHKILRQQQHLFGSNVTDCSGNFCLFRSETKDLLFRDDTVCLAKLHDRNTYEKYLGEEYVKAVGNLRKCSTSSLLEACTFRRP
run.description: SPR of lysine-linked synbodies on immobilized transferrin, Kd from kinetics
Format: binding
condition: Kd determined from kinetics; read-out: Kd with respect to transferrin
Bridges are numbered along the chain shown (N, C = ends). Roman numbers before positions name the chains, in order. Where no end group is shown, it is not given here.
parameter: Kd (µM)
Lab book: enter the figure in µM, no units written.

Summary for this substance, I: AHKVVPQRQIRHAYNRYGSGKC / II: FRGWAHIFFGPHVIYRGGSG (amide I:21-II:C) [SYN23-26] : Kd is 0.15
